So I've got a bunch of compounds here, and I need their Capacity factors log k’40 values.
- assayNotes: RP-HPLC determination of capacity factors and log Po/w (Supelcosil LC-ABZ, MOPS buffer pH 7.4/methanol)
- conditionNotes: 40% methanol, MOPS buffer pH 7.4
Answers are plain numbers.

| compoundSmiles | observedValue |
| --- | --- |
| Cc1c(C(=O)NCC(c2ccccc2)c2ccccc2)[n+]([O-])c2cc(Cl)ccc2[n+]1[O-] | 1.38 |
| Cc1c(C(=O)NCC(c2ccccc2)c2ccccc2)[n+]([O-])c2cc(Cl)c(Cl)cc2[n+]1[O-] | 1.78 |

State the recorded Capacity factors log k’40 for every item in the following list.
1. Cc1c(C(=O)NCc2ccc(Br)cc2)[n+]([O-])c2ccccc2[n+]1[O-]
2. Cc1ccc(CNC(=O)c2c(C)[n+]([O-])c3ccccc3[n+]2[O-])cc1

### Response
[0.85, 0.62]

###

- assayNotes: RP-HPLC determination of capacity factors and log Po/w (Supelcosil LC-ABZ, MOPS buffer pH 7.4/methanol)
- conditionNotes: 70% methanol, MOPS buffer pH 7.4
Rule: Capacity factors log k’70 of -0.1 or more gives satisfied; anything lower gives not satisfied.

| compound | assignedCategory |
| --- | --- |
| Cc1ccc2c(c1)[n+]([O-])c(C(=O)NCC(c1ccccc1)c1ccccc1)c(C)[n+]2[O-] [Compound 27] | not satisfied |
| Cc1c(C(=O)NCC(c2ccccc2)c2ccccc2)[n+]([O-])c2cc(Cl)ccc2[n+]1[O-] [Compound 28] | not satisfied |
| Cc1c(C(=O)NCC(c2ccccc2)c2ccccc2)[n+]([O-])c2ccccc2[n+]1[O-] [Compound 26] | not satisfied |
| Cc1ccc2c(c1)[n+]([O-])c(C(=O)NCc1ccccc1)c(C)[n+]2[O-] [Compound 11] | not satisfied |
| Cc1c(C(=O)NCc2ccccc2)[n+]([O-])c2ccccc2[n+]1[O-] [Compound 10] | not satisfied |
| Cc1ccc(CNC(=O)c2c(C)[n+]([O-])c3ccc(C)cc3[n+]2[O-])cc1 [Compound 23] | not satisfied |

### Prompt Evaluate Cc1c(C(=O)NCc2ccc(Br)cc2)[n+]([O-])c2cc(Cl)c(Cl)cc2[n+]1[O-] [Compound 21] : Capacity factors log k’70 at minimum -0.1?
### Response satisfied

### Prompt Evaluate Cc1c(C(=O)NCC(c2ccccc2)c2ccccc2)[n+]([O-])c2cc(Cl)c(Cl)cc2[n+]1[O-] [Compound 29] : Capacity factors log k’70 at minimum -0.1?
### Response satisfied

###

- assayNotes: physchem
- conditionNotes: pH 7.4, RP-HPLC log Po/w
measuredQuantity: chromatographic logP

As a guide, the following entries are already answered.
| compound | chromatographic logP |
| --- | --- |
| Cc1c(C(=O)NCc2ccc(Br)cc2)[n+]([O-])c2cc(Cl)ccc2[n+]1[O-] [Compound 20] | 3.09 |
| Cc1ccc2c(c1)[n+]([O-])c(C(=O)NCc1ccccc1)c(C)[n+]2[O-] [Compound 11] | 1.85 |
| Cc1c(C(=O)NCCc2ccccc2)[n+]([O-])c2cc(Cl)c(Cl)cc2[n+]1[O-] [Compound 17] | 2.87 |
| Cc1ccc2c(c1)[n+]([O-])c(C(=O)NCC(c1ccccc1)c1ccccc1)c(C)[n+]2[O-] [Compound 27] | 3.28 |

State the recorded chromatographic logP for every item in the following list.
1. Cc1c(C(=O)NCc2ccccc2)[n+]([O-])c2cc(Cl)c(Cl)cc2[n+]1[O-] [Compound 13]
2. Cc1c(C(=O)NCc2ccc(Br)cc2)[n+]([O-])c2ccccc2[n+]1[O-] [Compound 18]

### Response
[2.72, 2.57]

State the recorded chromatographic logP for every item in the following list.
1. Cc1ccc(CNC(=O)c2c(C)[n+]([O-])c3ccccc3[n+]2[O-])cc1 [Compound 22]
2. Cc1ccc2c(c1)[n+]([O-])c(C(=O)NCCc1ccccc1)c(C)[n+]2[O-] [Compound 15]

### Response
1. 2.29
2. 2
